Assayed system: human MRGPRX2 (Homo sapiens, UniProt Q96LB1)
Sequence (Q96LB1 whole entry): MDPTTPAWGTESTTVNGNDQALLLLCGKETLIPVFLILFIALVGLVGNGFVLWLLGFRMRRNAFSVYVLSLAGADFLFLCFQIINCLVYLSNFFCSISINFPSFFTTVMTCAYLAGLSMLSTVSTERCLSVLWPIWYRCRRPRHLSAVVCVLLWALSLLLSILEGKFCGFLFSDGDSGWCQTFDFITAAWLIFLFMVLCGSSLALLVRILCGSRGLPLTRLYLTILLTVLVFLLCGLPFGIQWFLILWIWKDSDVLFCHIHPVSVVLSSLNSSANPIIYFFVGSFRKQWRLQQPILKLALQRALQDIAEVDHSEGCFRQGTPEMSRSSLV
Protocol notes: Ca2+ mobilization assay (FLIPR TETRA): inhibition of Cortistatin-14 mediated MRGPRX2 activation
pIC50: −log10 of the molar value.

Compound: CC(C(=O)Nc1ccc(OCC2CCC2)cn1)N1CCC(F)(F)[C@@H](c2ccc(=O)[nH]c2)C1 (stereo partly drawn) [Example 30]
pIC50: 5.50 to 7.00

Compound: CC(C)Oc1ccc(NC(=O)C(C)N2CCC(F)(F)[C@@H](c3ccc(=O)[nH]c3)C2)nc1 (stereo partly drawn) [Example 26]
pIC50: 5.50 to 7.00

Compound: CC(=O)NCc1cc(C2CN(C(C)C(=O)Nc3ccc(Oc4ccc(F)cc4F)cn3)CCC2(F)F)cc[n+]1[O-] (mixture of isomers) [Example 262]
pIC50: ≥ 8.00
